# Assayed System: human C5aR(CD88) (Homo sapiens, UniProt P21730)
# Construct: expressed in transfected cells; host or cells: rat basophilic leukemia cells (RBL)
# Sequence (P21730 1-350): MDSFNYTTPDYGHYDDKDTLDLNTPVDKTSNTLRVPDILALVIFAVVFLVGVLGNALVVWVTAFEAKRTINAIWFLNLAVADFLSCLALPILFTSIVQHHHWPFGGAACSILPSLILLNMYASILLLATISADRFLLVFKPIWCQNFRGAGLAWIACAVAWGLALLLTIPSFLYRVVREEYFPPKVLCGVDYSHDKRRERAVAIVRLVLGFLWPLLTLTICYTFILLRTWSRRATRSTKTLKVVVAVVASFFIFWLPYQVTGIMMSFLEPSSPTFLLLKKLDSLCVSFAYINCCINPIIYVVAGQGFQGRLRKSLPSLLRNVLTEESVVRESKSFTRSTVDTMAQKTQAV
# Assay Method Text: Determination of the IC50 value in an enzyme release assay (functional assay, antagonistic activity)
# Type: cell-based
# Conditions Used: antagonistic activity; IC50 group in enzyme release assay, RBL cells expressing human C5aR(CD88); read-out: activity (group)
pIC50: −log10 of the molar value. Non-standard residues stand in square brackets, D forms with d. Residues, ends and D or L forms follow the SMILES beside them. Bta = N[C@@H](Cc1csc2ccccc12)C(=O)O; d(hCha) = N[C@H](CCC1CCCCC1)C(=O)O; β3hF = N[C@H](CC(=O)O)Cc1ccccc1; dCha = N[C@H](CC1CCCCC1)C(=O)O; Orn = NCCC[C@H](N)C(=O)O
Assay Endpoint: pIC50

// query // fetch pIC50 given entry CCCC[C@@H]1NC(=O)[C@H](Cc2c[nH]c3ccccc23)NC(=O)[C@@H](CC2CCCCC2)NC(=O)[C@@H]2CCCN2C(=O)[C@@H](NC(=O)[C@H](Cc2ccccc2)NC(=O)CON=C[C@H](O)[C@@H](O)[C@H](O)[C@H](O)CO)CCCNC1=O [Compound 333, Fck-[Phe-Orn-Pro-cha-Trp-Nle]]
// result 6.70 to 7.30

// query // fetch pIC50 given entry CC(=O)N[C@@H](Cc1ccccc1)C(=O)N[C@@H](CCCN)C(=O)N1CCC[C@H]1C(=O)N[C@H](CCC1CCCCC1)C(=O)N[C@@H](Cc1c[nH]c2ccccc12)C(=O)N[C@@H](Cc1ccccc1)C(N)=O [Compound 110, Ac-Phe-Orn-Pro-hch-Trp-Phe-NH2] (Ac-F[Orn]P[d(hCha)]WF-NH2)
// result 7.30 to 7.70

// query // fetch pIC50 given entry CC(=O)N[C@@H](Cc1ccccc1)C(=O)N[C@@H](CCCN)C(=O)N1CCC[C@H]1C(=O)N[C@H](CC1CCCCC1)C(=O)N[C@@H](Cc1csc2ccccc12)C(=O)N[C@H](CC(N)=O)Cc1ccccc1 [Compound 250, Ac-Phe-Orn-Pro-cha-Bta-Bhf-NH2] (Ac-F[Orn]P[dCha][Bta][β3hF]-NH2)
// result 7.30 to 7.70

---

Below, each of the molecules is paired with its reported IC50 value.
# Assayed System: human C5aR(CD88) (Homo sapiens)
# Construct: expressed in transfected cells; host or cells: rat basophilic leukemia cells (RBL)
# Assay Method Text: Determination of the IC50 value in an enzyme release assay (functional assay, antagonistic activity)
# Assay type: cell-based
# Conditions Used: antagonistic activity; IC50 group in enzyme release assay, RBL cells expressing human C5aR(CD88); read-out: activity (group)
Positions of bridges follow the written chain, without caps; N, C: chain ends. Non-standard residues stand in square brackets, D forms with d. Residues, ends and D or L forms follow the SMILES beside them. *: point of attachment. X10 = CCN(CC)[C@@H](Cc1ccccc1)C(=O)*; Bta = N[C@@H](Cc1csc2ccccc12)C(=O)O; d(hLeu) = CC(C)CC[C@@H](N)C(=O)O; dCha = N[C@H](CC1CCCCC1)C(=O)O; Aic = NC1(C(=O)O)Cc2ccccc2C1; Nicotinoyl = O=C(c1cccnc1)*; Nle = CCCC[C@H](N)C(=O)O; Orn = NCCC[C@H](N)C(=O)O

These solved cases illustrate the format of a correct answer.
CC(=O)N[C@@H](Cc1ccccc1)C(=O)N[C@@H](CCCN)C(=O)N1CCC[C@H]1C(=O)N[C@H](CCC(C)C)C(=O)N[C@@H](Cc1csc2ccccc12)C(=O)NC1(C(N)=O)Cc2ccccc2C1 [Compound 273, Ac-Phe-Orn-Pro-hle-Bta-Aic-NH2] (Ac-F[Orn]P[d(hLeu)][Bta][Aic]-NH2) ... 50 to 200 nM
CCCC[C@@H]1NC(=O)[C@H](Cc2c[nH]c3ccccc23)NC(=O)[C@@H](CCC(C)C)NC(=O)[C@H](CO)NC(=O)[C@@H](NC(=O)[C@H](Cc2ccccc2)N(CC)CC)CCCNC1=O [Compound 317, Def-[Orn-Ser-hle-Trp-Nle]] (X10-[Orn]S[d(hLeu)]W[Nle]; lactam 1-C) ... 50 to 200 nM

Let us move to another entry and its IC50.
// query Provide IC50, recorded with human C5aR(CD88) (Homo sapiens), of CCCC[C@@H]1NC(=O)[C@H](Cc2c[nH]c3ccccc23)NC(=O)[C@@H](CC2CCCCC2)NC(=O)[C@@H]2CCCN2C(=O)[C@@H](NC(=O)[C@H](Cc2ccccc2)NC(=O)c2cccnc2)CCCNC1=O [Compound 327, Fbn-Phe-[Orn-Pro-cha-Trp-Nle]] (Nicotinoyl-F[Orn]P[dCha]W[Nle]; lactam 2-C)
// result 50 to 200 nM

---

# Assayed System: human C5aR(CD88) (Homo sapiens, UniProt P21730)
# Construct: expressed in transfected cells; host or cells: rat basophilic leukemia cells (RBL)
# Assay Method Text: Determination of the IC50 value in an enzyme release assay (functional assay, antagonistic activity)
# Format: cell-based
# Conditions Used: antagonistic activity; IC50 group in enzyme release assay, RBL cells expressing human C5aR(CD88); read-out: activity (group)
pIC50: −log10 of the molar value. Positions of bridges follow the written chain, without caps; N, C: chain ends. Non-standard residues stand in square brackets, D forms with d. Residues, ends and D or L forms follow the SMILES beside them. *: point of attachment. Phe(4-F) = N[C@@H](Cc1ccc(F)cc1)C(=O)O; cisHyp = O=C(O)[C@@H]1C[C@H](O)CN1; Hydrocinnamoyl = O=C(CCc1ccccc1)*; Hyp = O=C(O)[C@@H]1C[C@@H](O)CN1; d(hLeu) = CC(C)CC[C@@H](N)C(=O)O; dCha = N[C@H](CC1CCCCC1)C(=O)O; Nle = CCCC[C@H](N)C(=O)O; Orn = NCCC[C@H](N)C(=O)O
Assay Endpoint: pIC50

These solved cases illustrate the format of a correct answer.
CC(=O)N[C@@H](Cc1ccccc1)C(=O)N[C@@H](CCCN)C(=O)N[C@@H](CO)C(=O)N[C@H](CC1CCCCC1)C(=O)N[C@@H](Cc1c[nH]c2ccccc12)C(=O)N[C@@H](Cc1ccccc1)C(=O)O [Compound 117, Ac-Phe-Orn-Ser-cha-Trp-Phe-OH] (Ac-F[Orn]S[dCha]WF-OH) ... 5.70 to 6.70
CCCC[C@@H]1NC(=O)[C@H](Cc2c[nH]c3ccccc23)NC(=O)[C@@H](CC2CCCCC2)NC(=O)[C@@H]2C[C@@H](O)CN2C(=O)[C@@H](NC(=O)CCc2ccccc2)CCCNC1=O [Compound 145, 3PP-[Orn-Hyp-cha-Trp-Nle]] (Hydrocinnamoyl-[Orn][Hyp][dCha]W[Nle]; lactam 1-C) ... 7.30 to 7.70

Let us move to another entry and its pIC50.
// query Provide pIC50, recorded with human C5aR(CD88) (Homo sapiens, UniProt P21730), of CC(=O)N[C@@H](Cc1ccccc1)C(=O)N[C@@H](CCCN)C(=O)N1C[C@@H](O)C[C@H]1C(=O)N[C@H](CCC(C)C)C(=O)N[C@@H](Cc1ccc(F)cc1)C(=O)N[C@@H](Cc1ccccc1)C(N)=O [Compound 236, Ac-Phe-Orn-Chy-hle-Pff-Phe-NH2] (Ac-F[Orn][cisHyp][d(hLeu)][Phe(4-F)]F-NH2)
// result 6.70 to 7.30

---

# Assayed System: human C5aR(CD88) (Homo sapiens)
# Construct: expressed in transfected cells; host or cells: rat basophilic leukemia cells (RBL)
# Sequence (P21730 1-350): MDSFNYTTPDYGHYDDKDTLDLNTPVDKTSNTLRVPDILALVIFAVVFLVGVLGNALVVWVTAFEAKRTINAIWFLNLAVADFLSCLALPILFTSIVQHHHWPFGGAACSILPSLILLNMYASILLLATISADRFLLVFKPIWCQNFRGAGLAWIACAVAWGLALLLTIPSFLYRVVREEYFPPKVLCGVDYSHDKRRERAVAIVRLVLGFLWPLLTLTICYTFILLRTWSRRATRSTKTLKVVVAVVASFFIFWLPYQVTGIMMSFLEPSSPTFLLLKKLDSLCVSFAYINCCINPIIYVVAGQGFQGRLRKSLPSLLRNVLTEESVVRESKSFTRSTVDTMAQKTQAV
# Assay Method Text: Determination of the IC50 value in an enzyme release assay (functional assay, antagonistic activity)
# Type: cell-based
# Conditions Used: antagonistic activity; IC50 group in enzyme release assay, RBL cells expressing human C5aR(CD88); read-out: activity (group)
Positions of bridges follow the written chain, without caps; N, C: chain ends. Non-standard residues stand in square brackets, D forms with d. Residues, ends and D or L forms follow the SMILES beside them. Bta = N[C@@H](Cc1csc2ccccc12)C(=O)O; dCha = N[C@H](CC1CCCCC1)C(=O)O; Orn = NCCC[C@H](N)C(=O)O; Aze = O=C(O)[C@@H]1CCN1
Below, each of the molecules is paired with its reported IC50 value.

NCCC[C@H](NC(=O)[C@@H](N)Cc1ccccc1)C(=O)N1CCC[C@H]1C(=O)N[C@H](CC1CCCCC1)C(=O)N[C@@H](Cc1c[nH]c2ccccc12)C(=O)N[C@@H](Cc1ccccc1)C(N)=O [Compound 74, H-Phe-Orn-Pro-cha-Trp-Phe-NH2] (H-F[Orn]P[dCha]WF-NH2) ... 50 to 200 nM
CC(=O)N[C@H](C(=O)N[C@@H](Cc1ccccc1)C(=O)N[C@@H](CCCN)C(=O)N1CC[C@H]1C(=O)N[C@H](CC1CCCCC1)C(=O)N[C@@H](Cc1csc2ccccc12)C(=O)N[C@@H](Cc1ccccc1)C(N)=O)[C@@H](C)O [Compound 314, Ac-Thr-Phe-Orn-Aze-cha-Bta-Phe-NH2] (Ac-TF[Orn][Aze][dCha][Bta]F-NH2) ... 20 to 50 nM

Let us move to another entry and its IC50.
// query // fetch IC50 given entry CSCC[C@@H]1NC(=O)[C@H](Cc2c[nH]c3ccccc23)NC(=O)[C@@H](CC2CCCCC2)NC(=O)[C@@H]2CCCN2C(=O)[C@@H](NC(=O)[C@H](Cc2ccccc2)NC(C)=O)CCCNC1=O [Compound 29, Ac-Phe-[Orn-Pro-cha-Trp-Met]] (Ac-F[Orn]P[dCha]WM; lactam 2-C)
// result 50 to 200 nM

Every entry's value here was drawn from patent US20080161232A1.
